test system: ACHN renal; assay: NCI-60 one-dose screen, 48 h; settings: 10 µM unless noted
About 83,000 compounds went through this panel and 20% of them were active in at least one assay; those are over-represented in the sample as a whole. The source made the active and inactive calls. The calls were made as follows: active = growth percent below 10; inactive = the rest.
Allowed answers: active, inactive

Prompt: Kindly provide the recorded test outcome for the following compound: O=C1/C=C/[C@@H](O)[C@@H]2C[C@@H](O)C[C@H]2/C=C/CCC[C@@H](O)CCO1
Completion: inactive

Prompt: What outcome does the record of this test show for CSc1nc(C)c([N+](=O)[O-])c(N)n1 ?
Completion: inactive

Prompt: # fetch the recorded call for CCNc1nc(O)c(/C=C2\C=Nc3ncccc32)s1 here
Completion: active

Prompt: Field: outcome | Entry: Nc1nc(N)c2c(n1)NC(c1cccc(Nc3ccnc4cc(C(F)(F)F)ccc34)c1)CC(c1ccc(Br)cc1)=N2 (stereo not given)
Completion: inactive

Prompt: Could you check what this test reported for C#CCNC(=O)[C@]1(C)CCC[C@@]2(C)[C@H]1CC=C1C=C(C(C)C)CC[C@@H]12 ?
Completion: inactive

Prompt: I'd appreciate the recorded outcome for CCNc1ccc(-c2nc3ccccc3n3cccc23)cc1 from this test.
Completion: inactive

Prompt: Can you look up the reported call for CCOC(=O)/C=C1\S/C(=N\Nc2cc(=O)[nH]c3ccccc23)N(c2ccccc2)C1=O for me?
Completion: inactive

Prompt: I would be grateful if you could indicate the recorded call for N#Cc1cccc(C2C3=C(COC3=O)N(CCO)c3cc4c(cc32)OCO4)c1 (stereo not given) .
Completion: inactive

Prompt: So what was the verdict on CCOc1c(OC)cc2c(c1O)C(=O)N[C@@H]1[C@@H](O)[C@@H](O)[C@H](O)C[C@@H]21 in this test?
Completion: inactive

Prompt: Dear all, I need the recorded test outcome for CC1CCN(C(=O)CCCl)c2ccccc21 (stereo not given) , thank you.
Completion: inactive

----------
system: A498 renal; assay: NCI-60 one-dose screen, 48 h (100 = growth as untreated, 0 = no growth, -100 = all killed); settings: 10 µM unless noted
The panel holds about 83,000 compounds, 20% with a hit somewhere; the sample as a whole holds those more often.
Can you tell me growth for the items I'm about to list?
Only the number, expressed in %, is required.

For record O=C1Nc2c(C(=O)O)cccc2/C1=N/c1n[nH]c(=S)s1 the listed growth is 115

Sure, the documented growth for Nc1nc(N)c2c(n1)NC(c1ccc(Cl)cc1)C1CCc3ccccc3C1=N2 (centres undefined) is 69.5

growth for CC(=O)OC[C@]12CC[C@@H]([C@@H](C)c3nnc(-c4ccncc4)o3)[C@@H]1[C@H]1CC[C@@H]3[C@@]4(C)CC[C@H](OC(C)=O)C(C)(C)[C@@H]4CC[C@@]3(C)[C@]1(C)CC2 is 97.4

For reference, reported growth for CCOC(=O)c1c(C)nc2c(c1N)/C(=C/c1ccc(OC)cc1)C(=O)N2Cc1ccccc1 stands at 74.4

----------
system: MCF7 breast; experiment: NCI-60 one-dose screen, 48 h; details: 10 µM unless noted
Compounds without any hit were thinned out: in the full panel of roughly 83,000, 20% have a hit. Activity calls are given as the source filed them. How the source made its calls: active means growth percent below 10; inactive means the rest.
Answer with one of the outcomes active, inactive

Prompt: Recorded test outcome, item C=CN(C(=O)N1CCN(c2cc3c(cc2F)c(=O)c(C(=O)O)cn3C2CC2)CC1)c1nc(-c2ccc(OC)cc2)cs1
Completion: active

Prompt: What outcome does the record of this test show for COc1cc(OC)c(C(=O)C(CN(C)C)CN(C)C)cc1OC ?
Completion: inactive

Prompt: Could you kindly confirm the outcome this assay logged for O=S1(=O)C=C(c2ccccc2)C(c2ccccc2)=C1 ?
Completion: active

Prompt: Hi, sorry to bother you, what did the test record for CCn1c(-c2cc3c([nH]c4ccccc43)c(-c3cccc(O)c3)n2)n[nH]c1=S ?
Completion: inactive

Prompt: Would you mind telling me which call this test gave Cn1cc(-c2csc(-c3c[nH]c4ccc(F)cc34)n2)c2ccnc(Cl)c21 ?
Completion: inactive

Prompt: So what was the verdict on CSC1=Nc2c(c(C)c(-c3ccccc3)n2CCCC(=O)O)C2=NC(=O)C[C@H](C)N12 in this test?
Completion: inactive

Prompt: In this assay, the call recorded for CCN1C(=O)N(CC)C2Nn3c(s/c(=C\c4ccccc4Br)c3=O)=NC21 (stereo not given) was what?
Completion: inactive

Prompt: # lookup: test call for CCOC(=O)c1[nH]c2c(c1C)-c1[nH]c(=O)c(S(=O)(=O)c3ccccc3)cc1SC2
Completion: inactive

Prompt: Assay outcome for C#CCOc1cccc(-c2ncnc3cc(NC(=O)C=C)ccc23)c1 : what was it?
Completion: inactive

Prompt: Which outcome was entered for the compound C=CC(=O)Nc1ccc(Nc2nccc(-c3ccc(N4CCCC4)c(C#N)c3)n2)cc1 in this test?
Completion: active

Prompt: What did this assay record as the result for CCN1C(=O)N(CC)C2C1NC(=S)N2/N=C/c1ccc(OC)cc1 (stereo not given) ?
Completion: inactive

Prompt: Query: recorded result category for NC(=O)c1cccc([C@@H]2O[C@H](CO)[C@@H](O)[C@H]2O)c1 in this test
Completion: inactive

Prompt: Check the results log: what was the call for COc1ccc2c(c1)c(/C(O)=C1\COC(=O)C1=O)cn2Cc1ccc(F)cc1 ?
Completion: inactive

Prompt: Query: recorded result category for Cc1ncc(C(=O)Nc2ccc(CN3CCN(C)CC3)c(C(F)(F)F)c2)cc1C#Cc1cnc(N)c2ncccc12 in this test
Completion: active

Prompt: Hi, sorry to bother you, what did the test record for COc1cccc(CNc2c3ccccc3nc3ccccc23)c1 ?
Completion: inactive

Prompt: Which outcome was entered for the compound O=C1/C(=C/c2ccccc2F)CN(C(=O)C(Cl)Cl)C/C1=C\c1ccccc1F in this test?
Completion: active

Prompt: Hello, I am checking results. What call was entered for COc1ccc(/C=C/c2c(C(=O)/C=C/c3ccccc3)c(C)nc3ccccc23)cc1 ?
Completion: inactive

Prompt: Status in this test for O=C1c2ccccc2C(=O)c2c1cc1c(c2[N+](=O)[O-])OCO1 ?
Completion: active

Prompt: Returns: the outcome recorded for COc1cc(C(=O)n2nc(N3CCOCC3)c3cc(-n4cccc4)ccc32)cc(OC)c1OC in this assay.
Completion: inactive

Prompt: I'd appreciate the recorded outcome for O=c1c2ccccc2c(=O)c2c1sc1c(=O)c3ccc(O)cc3c(=O)c12 from this test.
Completion: active

----------
tested on: NCI-H322M lung; assay: NCI-60 one-dose screen, 48 h (100 = growth as untreated, 0 = no growth, -100 = all killed); details: 10 µM unless noted
This is part of a sample that, as a whole, favours compounds with a hit. Of some 83,000 tested, about 20% had one in any assay. Active and inactive are the calls of the source. Rule for the calls: active = growth percent below 10; inactive = the rest.
Could you please report measured growth for the items listed next?

Entry under test: Cc1nc2c(c(=O)[nH]1)C(c1ccccc1)c1ccc3ccccc3c1O2 (centres undefined) . Its growth was 59.1% (inactive)

Cc1ccc2c(-c3nnc(N)s3)cc(=O)oc2c1C yielded growth of 98.5% (inactive)

So for COC(=O)/C=C1/SC(=Nc2ccc([N+](=O)[O-])cc2)N(CCc2c[nH]c3ccc(O)cc23)C1=O , the logged growth turned out to be 87.5% (inactive)

Per the records, this molecule ( CC1(C)CC[C@]2(C(=O)N[C@H](CO)Cc3ccccc3)CC[C@]3(C)C(=CC[C@@H]4[C@@]5(C)CCCNC(C)(C)[C@@H]5CC[C@]43C)[C@@H]2C1 ) has growth equal to 95.3% (inactive)

----------
Test system: OVCAR-8 ovarian
Test: NCI-60 one-dose screen, 48 h (100 = growth as untreated, 0 = no growth, -100 = all killed)
Conditions: 10 µM unless noted
Protocol: Growth inhibition of the OVCAR-8 human tumor cell line is measured as a screen for anti-cancer activity. Cells are grown in 96 well plates and exposed to the test compound for 48 hours. Compounds are tested at a single concentration, which is 10^-5 M for most compounds. The reported endpoint is percent growth (GI% or GIPRCNT), where numbers from 0 - 100% represent growth inhibition, and numbers from -100% - 0 represent cell death. For example, a value of 40 represents 60% growth inhibition. […]
This is part of a sample that, as a whole, favours compounds with a hit. Of some 83,000 tested, about 20% had one in any assay.
rule met if growth is below 40%. rule not met if not; exact matches included in rule not met.

Prompt: Lab log: compare recorded growth with 40%; is it strictly lower for CC1=CC(c2ccco2)=C2C(N)=NNC2N1 (stereo not given) ?
Completion: rule not met

Prompt: Please let me know if O=C1c2cccc3cccc(c23)C(=O)N1C/C=C/c1ccc2c3c(cccc13)C(=O)N(CCO)C2=O shows growth below 40%.
Completion: rule not met

Prompt: In the record for C#Cc1cccc(Nc2nc(C)nc3cc(NC(=O)CCl)ccc23)c1 , is growth less than 40%?
Completion: rule met

Prompt: Input Cc1cc(Nc2ccc(C(=O)N3CCCC3)cc2)nc(NCCCNc2ccnc3cc(Cl)ccc23)n1 ; condition: growth strictly below 40%. Does it hold?
Completion: rule not met

Prompt: is_below(growth, 40%) for CN1CCN(Cc2ccc(NC(=O)c3cncc(C#Cc4cnc(N)c5ncccc45)c3)cc2C(F)(F)F)CC1 ?
Completion: rule met

Prompt: Lab note: confirm whether the reported growth for this compound is below 40%, equality not counting. compound: CCCCNC(=O)c1cc([N+](=O)[O-])cc(C2CCCCC2)c1O
Completion: rule not met

Prompt: Consider the compound CC1(C)N=C(N)N=C(N)N1c1ccc(CCCCc2ccccc2)c(Cl)c1 . Is its growth strictly less than 40%?
Completion: rule met

Prompt: Decide: growth of COc1ccc(/C=C/c2ccc3ccccc3n2)c(OC)c1 strictly below 40%?
Completion: rule not met

Prompt: Hi there! Is growth for COc1cc(-c2nc3sccn3c2-c2ccnc(NCCNS(=O)(=O)c3ccc(Cl)cc3)n2)ccc1F below 40%, do you know?
Completion: rule met

Prompt: Report whether reported growth is lower than 40% (strictly) for CCOc1cccc(/C=N/NC(=O)c2cccc(Nc3ccnc(C(F)(F)F)c3)c2)c1O
Completion: rule met
